Recorded measurements of Urinary excretion F3, one per entry
- testSummary: Urinary excretion of flavanone-derived metabolites after single intake of lemon or orange extract (UPLC-ESI-QTOF-MS)
- Format: in vivo, human
- testConditions: lemon extract, urine fraction 8-10 h, mean ± SD
Quick reminder: number only, in µg/mg creatinine, skip the unit.

Solved entries:
molecule="O=C1CC(c2ccc(O)c(O)c2)Oc2cc(OC3OC(C(=O)O)C(O)C(O)C3O)cc(O)c21 (centres unmarked) [M1, Eriodictyol glucuronide-1]" datavalue=4.5
molecule="COc1ccc(C2CC(=O)c3c(O)cc(OC4OC(C(=O)O)C(O)C(O)C4O)cc3O2)cc1O (centres unmarked) [M7, Hesperetin 7-O-glucuronide]" datavalue=2.7
molecule="O=C1CC(c2ccc(O)c(OC3OC(C(=O)O)C(O)C(O)C3O)c2)Oc2cc(O)cc(O)c21 (centres unmarked) [M2, Eriodictyol glucuronide-2]" datavalue=18.1
molecule="COc1ccc(C2CC(=O)c3c(O)cc(O)cc3O2)cc1OS(=O)(=O)O (centres unmarked) [M14, Hesperetin 3′-O-sulfate]" datavalue=3.3

**Query** Consider the molecule shown here: O=C1CC(c2ccc(OC3OC(C(=O)O)C(O)C(O)C3O)cc2)Oc2cc(O)cc(O)c21 (centres unmarked) [M5, Naringenin 4′-O-glucuronide] What is its recorded Urinary excretion F3?
**Result** 1.3

**Query** Consider the molecule shown here: O=C1CC(c2ccc(O)cc2)Oc2cc(OC3OC(C(=O)O)C(O)C(O)C3O)cc(O)c21 (centres unmarked) [M3, Naringenin 7-O-glucuronide] What is its recorded Urinary excretion F3?
**Result** 1.7

**Query** Consider the molecule shown here: O=C1CC(c2ccc(OC3OC(C(=O)O)C(O)C(O)C3O)c(O)c2)Oc2cc(O)cc(O)c21 (centres unmarked) [M4, Eriodictyol glucuronide-3] What is its recorded Urinary excretion F3?
**Result** 27.7

**Query** Consider the molecule shown here: COc1ccc(C2CC(=O)c3c(O)cc(O)cc3O2)cc1OC1OC(C(=O)O)C(O)C(O)C1O (centres unmarked) [M8, Hesperetin 3′-O-glucuronide] What is its recorded Urinary excretion F3?
**Result** 9.2
